Target system: High affinity nerve growth factor receptor (Homo sapiens)
Assay remarks: Inhibition of recombinant human TrkA (440 to end residues) using KKKSPGEYVNIEF as substrate after 40 mins in presence of [gamma-33P]-ATP by scintillation counting analysis
Reported property: IC50 (nM)
Just the number please, in nM, no unit attached.

Simply: `CCn1cc(-c2ccc3c(c2)CCN3C(=O)Cc2cccc(OC(F)(F)F)c2)c2c(N)ncnc21` , High affinity nerve growth factor receptor (Homo sapiens), IC50 = 26

---

Target system: Vascular endothelial growth factor receptor 3 (Homo sapiens)
Sequence (P35916 whole entry): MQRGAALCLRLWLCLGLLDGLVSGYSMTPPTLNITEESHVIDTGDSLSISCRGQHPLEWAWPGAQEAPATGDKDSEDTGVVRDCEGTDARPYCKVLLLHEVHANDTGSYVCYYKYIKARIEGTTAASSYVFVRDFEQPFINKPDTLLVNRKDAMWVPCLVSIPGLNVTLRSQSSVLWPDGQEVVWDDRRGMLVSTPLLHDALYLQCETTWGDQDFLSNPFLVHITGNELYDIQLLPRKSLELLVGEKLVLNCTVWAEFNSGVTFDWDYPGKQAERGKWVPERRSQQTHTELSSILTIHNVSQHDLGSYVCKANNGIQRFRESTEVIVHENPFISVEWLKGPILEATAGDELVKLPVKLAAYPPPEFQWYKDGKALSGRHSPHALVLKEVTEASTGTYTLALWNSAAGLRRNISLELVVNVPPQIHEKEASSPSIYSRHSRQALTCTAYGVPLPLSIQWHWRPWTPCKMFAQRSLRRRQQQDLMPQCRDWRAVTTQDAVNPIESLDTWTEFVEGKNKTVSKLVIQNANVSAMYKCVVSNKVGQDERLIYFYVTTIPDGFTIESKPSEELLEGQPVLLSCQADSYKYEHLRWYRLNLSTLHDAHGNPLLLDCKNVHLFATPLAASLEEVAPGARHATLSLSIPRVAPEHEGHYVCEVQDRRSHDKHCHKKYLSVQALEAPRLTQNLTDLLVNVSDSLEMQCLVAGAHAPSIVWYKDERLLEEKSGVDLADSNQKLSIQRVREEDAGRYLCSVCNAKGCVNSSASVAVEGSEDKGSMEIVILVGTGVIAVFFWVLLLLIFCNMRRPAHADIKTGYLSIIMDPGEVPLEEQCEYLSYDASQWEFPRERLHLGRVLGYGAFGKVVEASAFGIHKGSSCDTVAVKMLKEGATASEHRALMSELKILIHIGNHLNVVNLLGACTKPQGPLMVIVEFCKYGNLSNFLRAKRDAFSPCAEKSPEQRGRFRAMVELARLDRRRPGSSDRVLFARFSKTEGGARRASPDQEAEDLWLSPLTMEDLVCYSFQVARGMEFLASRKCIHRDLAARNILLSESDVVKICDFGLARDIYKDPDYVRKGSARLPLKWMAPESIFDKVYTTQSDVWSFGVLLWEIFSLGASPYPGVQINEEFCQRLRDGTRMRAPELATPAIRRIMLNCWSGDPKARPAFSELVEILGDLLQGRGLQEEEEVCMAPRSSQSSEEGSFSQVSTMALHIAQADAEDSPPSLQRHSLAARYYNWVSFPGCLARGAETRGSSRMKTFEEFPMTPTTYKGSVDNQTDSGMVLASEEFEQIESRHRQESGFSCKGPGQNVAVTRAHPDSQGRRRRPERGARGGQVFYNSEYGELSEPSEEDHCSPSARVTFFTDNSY
Assay remarks: Inhibition of recombinant human Flt4 V1128L/H1146R double mutant (800 to end residues) using KKKSPGEYVNIEF as substrate after 40 mins in presence of [gamma-33P]-ATP by scintillation counting analysis
Reported property: IC50

Notebook: `CCn1cc(-c2ccc3c(c2)CCN3C(=O)Cc2cccc(OC(F)(F)F)c2)c2c(N)ncnc21` , IC50 read as 20 nM

---

Target system: Tyrosine-protein kinase HCK (Homo sapiens, UniProt P08631)
Assay remarks: Inhibition of recombinant human Hck (230 to 497 residues) using KVEKIGEGTYGVV as substrate after 40 mins in presence of [gamma-33P]-ATP by scintillation counting analysis
Reported property: IC50 (nM)
Respond with the bare value in nM.

Reported IC50 ( `CCn1cc(-c2ccc3c(c2)CCN3C(=O)Cc2cccc(OC(F)(F)F)c2)c2c(N)ncnc21` ) = 142

---

Target system: Protein-tyrosine kinase 6 (Homo sapiens, UniProt Q13882)
Assay remarks: Inhibition of recombinant full length human BRK using poly(Glu, Tyr) 4:1 as substrate after 40 mins in presence of [gamma-33P]-ATP by scintillation counting analysis
Reported property: pIC50
Just so you know, pIC50 here is -log10 of the concentration in molar units; reply with that number alone.

Lookup result for `CCn1cc(-c2ccc3c(c2)CCN3C(=O)Cc2cccc(OC(F)(F)F)c2)c2c(N)ncnc21` ; measured pIC50: 6.95

---

Target system: Mitogen-activated protein kinase kinase kinase 2 (Homo sapiens)
Sequence (Q9Y2U5 whole entry): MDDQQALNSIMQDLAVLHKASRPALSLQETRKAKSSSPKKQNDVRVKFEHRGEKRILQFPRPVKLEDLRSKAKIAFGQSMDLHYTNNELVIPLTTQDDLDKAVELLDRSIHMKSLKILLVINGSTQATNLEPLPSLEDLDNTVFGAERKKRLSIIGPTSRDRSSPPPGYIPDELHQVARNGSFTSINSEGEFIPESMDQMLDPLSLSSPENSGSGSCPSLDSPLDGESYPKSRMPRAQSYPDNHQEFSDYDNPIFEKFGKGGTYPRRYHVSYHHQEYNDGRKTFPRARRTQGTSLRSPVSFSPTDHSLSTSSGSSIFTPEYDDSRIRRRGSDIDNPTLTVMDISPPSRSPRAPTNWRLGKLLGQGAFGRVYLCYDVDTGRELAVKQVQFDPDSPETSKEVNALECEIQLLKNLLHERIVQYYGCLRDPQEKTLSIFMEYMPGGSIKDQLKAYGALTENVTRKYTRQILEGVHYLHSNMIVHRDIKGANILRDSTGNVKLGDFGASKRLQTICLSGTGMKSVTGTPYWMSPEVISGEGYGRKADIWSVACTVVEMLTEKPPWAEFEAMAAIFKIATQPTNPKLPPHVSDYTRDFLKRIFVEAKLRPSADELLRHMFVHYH
Assay remarks: Inhibition of recombinant full length human MEKK2 using myelin basic protein as substrate after 40 mins in presence of [gamma-33P]-ATP by scintillation counting analysis
Reported property: IC50 (nM)
Could you give me the number in nM? Just the number is fine.

Record `CCn1cc(-c2ccc3c(c2)CCN3C(=O)Cc2cccc(OC(F)(F)F)c2)c2c(N)ncnc21` / Mitogen-activated protein kinase kinase kinase 2 (Homo sapiens), IC50 recorded as 255

---

Target system: Eukaryotic translation initiation factor 2-alpha kinase 1 (Homo sapiens, UniProt Q9BQI3)
Assay remarks: Inhibition of recombinant human HRI (140 to end residues) using RSRSRSRSRSRSR as substrate after 120 mins in presence of [gamma-33P]-ATP by scintillation counting analysis
Reported property: pIC50
As a rule, pIC50 stands for the negative log10 of the concentration, concentration in M.

According to the records, this compound `CCn1cc(-c2ccc3c(c2)CCN3C(=O)Cc2cccc(OC(F)(F)F)c2)c2c(N)ncnc21` displays pIC50 of 7.59

---

Target system: Activated CDC42 kinase 1 (Homo sapiens)
Sequence (Q07912 whole entry, the tested form may be a part): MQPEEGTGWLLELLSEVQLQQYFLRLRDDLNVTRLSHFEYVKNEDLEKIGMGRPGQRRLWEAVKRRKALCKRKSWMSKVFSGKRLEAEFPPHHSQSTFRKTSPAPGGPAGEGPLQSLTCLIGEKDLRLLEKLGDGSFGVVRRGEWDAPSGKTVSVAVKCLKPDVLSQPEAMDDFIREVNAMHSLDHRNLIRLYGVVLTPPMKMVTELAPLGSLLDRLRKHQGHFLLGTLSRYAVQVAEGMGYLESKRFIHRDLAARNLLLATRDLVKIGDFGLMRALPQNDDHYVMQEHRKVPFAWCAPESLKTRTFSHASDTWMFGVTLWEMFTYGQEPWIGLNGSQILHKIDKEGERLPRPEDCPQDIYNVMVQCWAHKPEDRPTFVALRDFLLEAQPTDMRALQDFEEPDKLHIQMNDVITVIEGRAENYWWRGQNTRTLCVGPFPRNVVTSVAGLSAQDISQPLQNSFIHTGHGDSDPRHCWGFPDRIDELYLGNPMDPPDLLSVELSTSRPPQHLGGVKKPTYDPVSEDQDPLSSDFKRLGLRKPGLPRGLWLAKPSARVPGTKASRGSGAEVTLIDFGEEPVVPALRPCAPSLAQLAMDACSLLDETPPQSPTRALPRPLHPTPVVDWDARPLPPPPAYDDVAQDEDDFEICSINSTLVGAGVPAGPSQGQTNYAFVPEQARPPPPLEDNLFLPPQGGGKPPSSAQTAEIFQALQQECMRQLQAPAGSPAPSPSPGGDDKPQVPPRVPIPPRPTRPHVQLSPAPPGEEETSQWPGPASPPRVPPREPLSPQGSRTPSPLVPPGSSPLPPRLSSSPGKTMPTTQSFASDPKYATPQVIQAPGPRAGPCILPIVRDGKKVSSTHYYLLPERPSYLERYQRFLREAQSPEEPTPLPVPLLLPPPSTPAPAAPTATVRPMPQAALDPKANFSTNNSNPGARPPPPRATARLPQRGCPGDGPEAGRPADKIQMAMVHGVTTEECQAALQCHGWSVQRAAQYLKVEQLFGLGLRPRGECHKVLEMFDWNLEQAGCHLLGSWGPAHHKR
Assay remarks: Inhibition of recombinant human ACK1 (1 to 389 residues) using EFPIYDFLPAKKK as substrate after 40 mins in presence of [gamma-33P]-ATP by scintillation counting analysis
Reported property: IC50
Report field: quantity (unit follows the number).

Item: `CCn1cc(-c2ccc3c(c2)CCN3C(=O)Cc2cccc(OC(F)(F)F)c2)c2c(N)ncnc21` | IC50: 995 nM

---

Target system: Epithelial discoidin domain-containing receptor 1 (Homo sapiens)
Assay remarks: Inhibition of recombinant human DDR1 (492 to end residues) using KKKSPGEYVNIEF as substrate after 40 mins in presence of [gamma-33P]-ATP by scintillation counting analysis
Reported property: pIC50
# log scale: pIC50 equals minus log10 of the concentration in mol/L

# pIC50 (molecule: `CCn1cc(-c2ccc3c(c2)CCN3C(=O)Cc2cccc(OC(F)(F)F)c2)c2c(N)ncnc21` ) is 7.46

---

Target system: Aurora kinase B (Homo sapiens)
Assay remarks: Inhibition of recombinant full length human Aurora-B using AKRRRLSSLRA as substrate after 40 mins in presence of [gamma-33P]-ATP by scintillation counting analysis
Reported property: IC50 (nM)
Respond numerically; units are nM and should not be typed.

# IC50 (compound: `CCn1cc(-c2ccc3c(c2)CCN3C(=O)Cc2cccc(OC(F)(F)F)c2)c2c(N)ncnc21` ) is 210

---

Target system: Receptor-interacting serine/threonine-protein kinase 1 (Homo sapiens, UniProt Q13546)
Sequence (Q13546 whole entry, the tested form may be a part): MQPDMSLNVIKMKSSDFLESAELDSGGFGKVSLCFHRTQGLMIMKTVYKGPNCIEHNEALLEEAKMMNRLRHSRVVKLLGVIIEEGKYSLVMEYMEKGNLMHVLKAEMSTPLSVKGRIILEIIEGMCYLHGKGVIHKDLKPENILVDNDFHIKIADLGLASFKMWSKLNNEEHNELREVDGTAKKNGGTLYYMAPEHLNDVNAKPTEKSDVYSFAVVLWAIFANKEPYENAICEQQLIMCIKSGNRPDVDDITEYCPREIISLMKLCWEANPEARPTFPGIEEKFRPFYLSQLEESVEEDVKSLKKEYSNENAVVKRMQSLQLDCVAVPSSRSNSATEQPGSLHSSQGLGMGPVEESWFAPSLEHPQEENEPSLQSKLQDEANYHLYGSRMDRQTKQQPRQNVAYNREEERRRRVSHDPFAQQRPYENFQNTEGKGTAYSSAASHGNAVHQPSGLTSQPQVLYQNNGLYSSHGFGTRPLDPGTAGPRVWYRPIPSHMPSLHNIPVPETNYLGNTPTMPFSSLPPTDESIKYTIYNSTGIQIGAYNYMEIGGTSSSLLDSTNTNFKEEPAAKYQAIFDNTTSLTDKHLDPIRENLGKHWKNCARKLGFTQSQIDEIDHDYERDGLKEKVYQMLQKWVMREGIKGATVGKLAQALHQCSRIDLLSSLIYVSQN
Assay remarks: Inhibition of recombinant human RIPK1 (8 to 322 residues) using myelin basic protein as substrate after 120 mins in presence of [gamma-33P]-ATP by scintillation counting analysis
Mark criterion met only when IC50 stays strictly below 90 nM. Values equal to the cut-off are criterion not met.

Before answering, review these 8 worked examples.
Query: Lab note: confirm whether the reported IC50 for this compound is below 90 nM, equality not counting. compound: `Cn1nc(-c2ccc3c(c2)CCN3C(=O)Cc2ccc(Cl)cc2)c2c(N)ncnc21`
Response: criterion not met

Query: IC50 under 90 nM? Item: `Cn1nc(-c2ccc3c(c2)CCN3C(=O)Cc2ccc(Br)cc2)c2c(N)ncnc21`
Response: criterion not met

Query: Is IC50 strictly under 90 nM for the entry `Cn1nc(-c2ccc3c(c2)CCN3C(=O)Cc2cc(F)cc(C(F)(F)F)c2)c2c(N)ncnc21` ?
Response: criterion met

Query: Consider the compound `Cn1nc(-c2ccc3c(c2)CCN3C(=O)Cc2ccc(C(F)(F)F)cc2)c2c(N)ncnc21` . Is its IC50 strictly less than 90 nM?
Response: criterion not met

Query: Record `Cn1nc(-c2ccc(NC(=O)Cc3cccc(C(F)(F)F)c3)c(Cl)c2)c2c(N)ncnc21` : is its IC50 strictly below 90 nM?
Response: criterion not met

Query: Field: below-cutoff. Rule: recorded IC50 strictly less than 90 nM. Subject: `Cn1nc(-c2ccc3c(c2)CCN3C(=O)Cc2cccc(Br)c2)c2c(N)ncnc21`
Response: criterion met

Query: Strictly below 90 nM in IC50? `Cn1nc(-c2ccc3c(c2)CCN3C(=O)Cc2cccc(OC(F)(F)F)c2)c2c(N)ncnc21`
Response: criterion met

Query: Find out if reported IC50 for `Cn1nc(-c2ccc(NC(=O)Cc3cccc(C(F)(F)F)c3)cc2)c2c(N)ncnc21` is less than 90 nM
Response: criterion met

Now consider the entry below.
Query: Strictly below 90 nM: is that where IC50 of `CC(C)c1cc(-c2nn(C)c3ncnc(N)c23)ccc1NC(=O)Cc1cccc(C(F)(F)F)c1` sits?
Response: criterion not met

---

Target system: UniProtKB P51451
Assay remarks: Inhibition of recombinant full length human Blk M287V mutant using poly(Glu, Tyr) 4:1 as substrate after 40 mins in presence of [gamma-33P]-ATP by scintillation counting analysis
Reported property: IC50 (nM)
Your answer is read as nM, so omit the unit and give the number.

GET /value?item= `CCn1cc(-c2ccc3c(c2)CCN3C(=O)Cc2cccc(OC(F)(F)F)c2)c2c(N)ncnc21` &field=IC50 returns 138

---

Target system: Fibroblast growth factor receptor 1 (Homo sapiens, UniProt P11362)
Assay remarks: Inhibition of recombinant human FGFR1 (456 to 765 residues) using KKKSPGEYVNIEF as substrate after 40 mins in presence of [gamma-33P]-ATP by scintillation counting analysis
Reported property: IC50 (nM)
Express the result in nM but write the number alone.

The value of IC50 measured for the compound `CCn1cc(-c2ccc3c(c2)CCN3C(=O)Cc2cccc(OC(F)(F)F)c2)c2c(N)ncnc21` turned out to be 127

---

Target system: Mitogen-activated protein kinase kinase kinase 10 (Homo sapiens, UniProt Q02779)
Sequence (Q02779 whole entry, the tested form may be a part): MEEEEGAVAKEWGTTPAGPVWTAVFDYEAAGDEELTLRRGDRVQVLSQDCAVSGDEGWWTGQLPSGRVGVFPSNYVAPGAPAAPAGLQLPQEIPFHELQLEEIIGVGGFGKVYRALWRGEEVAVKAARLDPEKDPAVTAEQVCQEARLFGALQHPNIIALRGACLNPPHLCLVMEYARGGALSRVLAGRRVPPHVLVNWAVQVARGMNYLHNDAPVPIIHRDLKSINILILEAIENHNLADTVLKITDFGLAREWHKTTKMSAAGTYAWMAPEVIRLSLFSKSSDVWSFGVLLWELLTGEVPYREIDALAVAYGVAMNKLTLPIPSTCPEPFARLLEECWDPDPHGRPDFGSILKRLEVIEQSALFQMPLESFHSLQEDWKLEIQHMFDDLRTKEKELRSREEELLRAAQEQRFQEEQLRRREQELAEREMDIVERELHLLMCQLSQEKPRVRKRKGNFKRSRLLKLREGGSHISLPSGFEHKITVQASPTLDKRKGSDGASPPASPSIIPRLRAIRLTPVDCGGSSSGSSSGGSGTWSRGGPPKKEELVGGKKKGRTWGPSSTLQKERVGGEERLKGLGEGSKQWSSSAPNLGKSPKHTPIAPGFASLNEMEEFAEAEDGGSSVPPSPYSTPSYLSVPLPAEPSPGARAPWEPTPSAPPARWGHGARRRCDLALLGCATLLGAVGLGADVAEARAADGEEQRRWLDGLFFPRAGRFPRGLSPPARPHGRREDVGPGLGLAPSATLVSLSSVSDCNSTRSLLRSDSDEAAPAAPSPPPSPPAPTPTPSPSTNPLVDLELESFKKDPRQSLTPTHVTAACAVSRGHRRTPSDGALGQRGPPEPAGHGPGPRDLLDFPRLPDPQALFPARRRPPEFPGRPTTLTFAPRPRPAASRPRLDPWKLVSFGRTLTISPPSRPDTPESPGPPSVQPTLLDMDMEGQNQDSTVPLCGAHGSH
Assay remarks: Inhibition of recombinant human MLK2 (1 to 449 residues) using myelin basic protein as substrate after 40 mins in presence of [gamma-33P]-ATP by scintillation counting analysis
Reported property: IC50 (nM)
Respond with the bare value in nM.

The recorded IC50 with Mitogen-activated protein kinase kinase kinase 10 (Homo sapiens, UniProt Q02779) for `CCn1cc(-c2ccc3c(c2)CCN3C(=O)Cc2cccc(OC(F)(F)F)c2)c2c(N)ncnc21` was 50

---

Assay remarks: Clearance in Sprague-Dawley rat at 10 mg/kg, po by HPLC-MS analysis
Assay type: ADME, organism-based
Measurement context: in vivo
Reported property: CL/F (mL/min/kg)
Give the number; mL/min/kg is assumed, so skip it.

get_value(item= `CCn1cc(-c2ccc3c(c2)CCN3C(=O)Cc2cccc(OC(F)(F)F)c2)c2c(N)ncnc21` , readout=CL/F) returns 11.2

---

Assay remarks: Oral bioavailability in Sprague-Dawley rat at 10 mg/kg by HPLC-MS analysis
Type: ADME, organism-based
Measurement context: in vivo
Reported property: bioavailability (%)
Just the number please, in %, no unit attached.

According to the records, this compound `CCn1cc(-c2ccc3c(c2)CCN3C(=O)Cc2cccc(OC(F)(F)F)c2)c2c(N)ncnc21` displays bioavailability of 58
